Tm for assorted substances
- assay-name: melting temperature; melt of duplexes
- experimental-setup: sodium 0.0675 M; strand 1 µM
The figure you give is taken to be in °C; do not add the unit.

Before answering, review these 5 worked examples.
> print(dat)
                                  substance  unit.label  measured.value
1  CGACGTGCCCGATGTGCTG+CAGCACATCTTGCACGTCG ((((((((..(((((((((+)))))))))..))))))))          °C            52.5
2  CGACGTGCGTTATGTGCTG+CAGCACATGACGCACGTCG ((((((((((.((((((((+)))))))).))))))))))          °C            58.9
3  CGACGTGCTCTATGTGCTG+CAGCACATGTAGCACGTCG (((((((((..((((((((+))))))))..)))))))))          °C            52.3
4  CGACGTGCGGCATGTGCTG+CAGCACATTCTGCACGTCG ((((((((.(.((((((((+)))))))).).))))))))          °C            53.1
5  CGACGTGCGCGATGTGCTG+CAGCACATTCTGCACGTCG ((((((((...((((((((+))))))))...))))))))          °C            50.4

Query: Tm; subject: CGACGTGCCTGATGTGCTG+CAGCACATGGTGCACGTCG ((((((((...((((((((+))))))))...))))))))
47.4

Tell me the measured Tm of CGACGTGCCGCATGTGCTG+CAGCACATTTGGCACGTCG (((((((((..((((((((+))))))))..))))))))) , please.
53.9
